B1: tRNA (parent)
chain: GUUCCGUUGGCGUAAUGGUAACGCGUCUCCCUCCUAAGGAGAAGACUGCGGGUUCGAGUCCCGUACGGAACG

Variants of: B1
PROTOCOL_SUMMARY: yeast fitness, log relative to wild type (ln ratio); higher = fitter; tRNA-Arg(CCU), competitive growth, 37 C, 1 M NaCl
Catalogue of yeast fitness (ln) values
READOUT_KIND: yeast fitness (ln)

>>> measured_result("G1A U2G G6U C27U C46U C66A A70U C71U")
-0.0752
>>> measured_result("G1A U2C G6U C46U A69G A70G C71U")
-0.15
>>> measured_result("U2G G6U C27U C46U A69G A70G C71U")
-0.268
>>> measured_result("G1A G6A A43C C66U A69G A70G")
-0.253
>>> measured_result("A43C A69G")
-0.0224
>>> measured_result("U2C G6U A43C C46U C66U A69G A70U")
-0.211
>>> measured_result("G1A U2G G6A C66U A69G A70G")
-0.282
>>> measured_result("G1A U2G G6A C66U A69G A70U")
-0.334
>>> measured_result("G1A A43C C66A A70G C71U")
-0.164
>>> measured_result("G1A U2C G6A C27U C46U C66U A69G A70G C71U")
-0.0405
>>> measured_result("U2C G6U C46U C66A A69G A70G")
0.0157
>>> measured_result("U2G G6U C27U A69G A70G")
-0.246
>>> measured_result("G6U C46U C66A A69G A70G")
-0.00994
>>> measured_result("U2G A69G C71U")
-0.101
>>> measured_result("G1A G6U C66A A69G C71U")
-0.032
>>> measured_result("G1A U2G A43C C46U C66U A69G A70G C71U")
-0.323
>>> measured_result("C27U A43C A69G A70G")
-0.235
>>> measured_result("G1A U2G C27U C46U C66A A70U")
-0.138
>>> measured_result("U2C G6A C27U A43C C66A A70G C71U")
-0.0895
>>> measured_result("U2C G6A C66U A69G A70U")
-0.222
>>> measured_result("G1A U2C C27U C66U A69G A70G")
-0.313
>>> measured_result("G1A U2G G6A C27U A43C C66U A69G A70G")
-0.447
>>> measured_result("U2G C66A A69G A70G C71U")
-0.152
>>> measured_result("U2G C46U C66U A69G A70G C71U")
-0.114
>>> measured_result("C66U")
-0.017
>>> measured_result("G1A G6A C27U C66U A69G A70G")
-0.386
>>> measured_result("U2C G6U A43C C46U C66A A70U")
-0.21
>>> measured_result("G1A G6A C46U C66U A69G A70G")
-0.136
>>> measured_result("U2C C27U C46U C66A A69G A70U")
-0.114
>>> measured_result("G1A U2G G6U C66U A69G A70U C71U")
-0.553
>>> measured_result("U2G G6A C46U C66U A70U")
-0.000351
>>> measured_result("G1A G6U A43C C66U")
-0.232
>>> measured_result("U2G A43C C46U C66A A69G A70G C71U")
-0.21
>>> measured_result("G1A U2G G6A C27U A70G C71U")
-0.336
>>> measured_result("C27U A43C C66A A69G A70G")
-0.181
>>> measured_result("U2C G6U A43C C66A A69G A70U C71U")
-0.321
>>> measured_result("U2C A69G C71U")
-0.158
>>> measured_result("U2C G6U C27U A43C C46U A69G A70G")
-0.227
>>> measured_result("U2G G6U C27U C46U C66A A70U C71U")
-0.143
>>> measured_result("G6A C27U A69G A70U C71U")
-0.416
>>> measured_result("G6A C46U A70U")
-0.237
>>> measured_result("G1A G6U C27U A69G A70U C71U")
-0.505
>>> measured_result("G6A C27U A43C C46U A70U")
-0.139
>>> measured_result("U2C G6A C46U C66U A69G A70U C71U")
-0.419
>>> measured_result("U2C")
0.0175
>>> measured_result("G6U C27U A43C C46U C66U A69G A70G C71U")
-0.444
>>> measured_result("G1A U2G G6U C27U")
-0.148
>>> measured_result("U2G G6U C27U A70G C71U")
-0.285
>>> measured_result("G1A U2C G6U C27U A43C C46U C66U A70G C71U")
-0.0871
>>> measured_result("U2G C27U C66U A70U C71U")
-0.281
>>> measured_result("U2C C66A A69G A70U")
-0.0958
>>> measured_result("U2C G6U A43C C66A C71U")
-0.0984
>>> measured_result("G1A U2C C27U A43C A69G A70G")
-0.275
>>> measured_result("U2G G6A C27U A43C C66A A69G C71U")
-0.379
>>> measured_result("G1A U2G C27U A43C C46U A69G C71U")
-0.239
>>> measured_result("U2C G6U C27U A43C C66A A70G C71U")
-0.0868
>>> measured_result("G1A U2G G6A A70G C71U")
-0.172
>>> measured_result("G1A G6A C27U A43C A69G A70U C71U")
-0.684
>>> measured_result("C27U A43C A69G A70U C71U")
-0.419
>>> measured_result("U2G G6U C27U A43C C46U C66U A69G A70U C71U")
-0.507
>>> measured_result("G1A G6U C66U A69G A70G C71U")
-0.273
>>> measured_result("U2C G6A C27U C46U C66U A70U C71U")
-0.174
>>> measured_result("G1A G6U A43C C46U C66U C71U")
-0.275
>>> measured_result("G1A U2G C27U A43C C66U")
-0.123
>>> measured_result("G1A C27U C46U")
-0.0938
>>> measured_result("G6A C27U A43C C66U")
-0.0646
>>> measured_result("G1A U2C G6A A43C C46U")
0.0217
>>> measured_result("G6U C27U A43C C66A C71U")
-0.425
>>> measured_result("G6U C27U A69G A70G")
-0.33
>>> measured_result("G6A C27U C66U A70U C71U")
-0.312
